As shown below, each of these sequences has a reported apparent KD of K4 kissing-loop reporter value.
Test system: K4 kissing-loop RNA reporter
assay summary: apparent KD of K4 kissing-loop reporter; higher = weaker reporter binding
condition notes: Eterna round: R107; input ligand: FMN 200 uM

residue sequence	unit	apparent KD of K4 kissing-loop reporter
GCCGUAGAUUGAAGGAGCGGUAUGGGCGUUGGCUGAGUGAUGUUCAGGAAAAGUGGCUUCUACCAGGUAGGUCGCAAUCUACGGC	nM	133
UUGACCAAAUUCCGGUGAUCAUCGCCGCCGCGAGGACCGGUACGGCCGCCACUCGUCCCUAUGCUCGGAGUAGUGAUGUUAUUCA [theeternabot_sameState_KL_Trp_A_43]	nM	557
AUAGAAAAGUGGCACCCUCACUAAAACAGUCGAGGACCGGUACGGCCGCCACUCGCGCGCUUUAGUGAUGUUAAAGCUAGGCGGA	nM	269
AGUGGAACUUGCAGGUAUCCACAACUGGAUACCAGCUCGGAAACGAGCCCUUGGCAGCCAGAUCUUGCAGUGAUGUUGCAAGUUC [Design10]	nM	392
GUUACGCAUGGAAGGAGCGCUCUCCGGUUGAUCGACACAGUGAUGUUGUGGUUCUACCGUAAGCAGGUAGGUCGCCAUGUGUAAC [Ex Arginine B K4 14]	nM	730
GGAUGGUAGGCGGCCGCCACUAAAAGUGAACACAUACAAGCCAGUGAUGUUGGUAUGAUGGACUAUAGGACCGGGCCUAGAUAGA [Exclusion - Tryptophan B (Freestyle 6)]	nM	468
UCGCUCGAGUAAGGAUAUCAAUAUCAAAGGUCGUAGUGAUGUUAUACCAGGCCAAUUUGGCGGUAGUGAGAAGGUACUAGCAGUU [theeternabot_sameState_KL_FMN_B_38]	nM	1090
GCGCGGCCCAGUGAUGUUGGGCCUCGGAGACGAGGACCGGUACGGCCGCCACUCGUCCGCGCAGCUGAGGCAAAAGCCUCGGCAA [Omei KL Tryp A SS B v6]	nM	207
GGAUAGGAUAGAGGAUAUGGUUUAUGCAAGAAUAACUUAUCGUGUAAAUCCAUAGGGAGUGAUGUUCCAGAAGGCUGUCCUAUCG [MatMod 12 - Jieux - Exclusion - FMN B]	nM	335
GACGGGCAGUGAUGUUGCCGGUCUCUUGGACGAGGACCGGUACGGCCGCCACUCGAUCUGAUGCAAGAAUCGCAUCUUUUAAUAA [Biququan]	nM	151
UAGUCAUACAGAGGAUAUCGUAUGAGUGAUGUUCAUAUGCGUACAUCAACUUGAUGUACACCUAGACGAGAAGGCUGUAUGACUA [FMB B SS t6a]	nM	172
GCGUGCCAUGCAGGAUAUAGUUGUUCGAGUGAUGUUCGAGCCUUGCUAAGUUCGGAGCAUCAGCUUCUAGAAGGGCAUGGCACGC	nM	156
GGUAGCAUGGCGGCCGCCACUACCUAGUGAUGUUAGGCUGUGGACAUAGGAGCAAGACAAAUAUGUAGGACCGGGCCAUGCUACC	nM	126
GGAGGUUGGUGCGAUACCAGACCUGCAGUGAUGUUGCGCCAAAGUGAGUGAUGUUCACCGGUCCCUUGGCAGCGCGUCCCUUUAG [Same State Theophylline B GF 15]	nM	848
UGAGGAGAAUAUGAUACCAGCAGAGAGAGAGAGGAAGUAUAGUGAUGUUAUAUGAGAUAAUGCCCUUGGCAGCAUAAGAAGAAGG [#19 K4 Theophylline B Same State]	nM	163
UCACGUGCCAGUGAUGUUGGCGUACGUGAUACCAGACGAAUAAAAGUCCCUUGGCAGCACAAAUAUGCCAAGUUAGAUGUAUGAU [Exclusion Theophylline A GF 2]	nM	125
GGGCCUAUUGAUGCUGGAGCAAUUCUGGAAGGAGCGCUCAAAGGAGCAGGUAGGUCGCCAGUAUGCAAGGGCAGUGAUGUUGCCC [Ersoarxe]	nM	238
ACGUGCACCAGUGAUGUUGGAAAAUAUGAAGGAGCGGGAGAAAACCCAGGUAGGUCGCAUAAUAGCACGAGCCACGAAAGUGGCA	nM	191
UUUAUUAAGACGGCCGCCACUGAUUCAUAGUGAUGUUAUGAUAUAAUUUUAGUGAUAUGCAUUAGCAGGACCGGGUCAAUUAUUA [JR_ExcTryptoB_Sub017]	nM	158
GAUGAUCGCGCGGCCGCCACUGGUCAGUGAUGUUGACAUUAAUGCGCCGAGUAGUAACGGCGCAGCAGGACCGGGCGCGAUGUAG [#12 K4 Tryptophan B Same State]	nM	144
AAUUUAUGAUCUGAUACCAGACUUUAUCUUGUUUAUAAGUCAAGUGAUGUUUGACUAUUAGUCCCUUGGCAGCAGUAUUGUUUAA [#17 K4 Theophylline B Same State]	nM	243
CUCACAGUGAUGUUGUGGGCCGAGAGUGAUACCAGCCGUAUUUGUGGCCCUUGGCAGCGCAGAACCAGUGAUGUUGGUUACUUGG [Same State Theophylline A GF 23]	nM	229
CGCCGCAAGGCGAGCGCUCCCACUCCGGAAGGAGCGCCCGCAAGGGCAGGUAGGUCGCCGGAGUGAUGUUCCGGUGGAGGGCUCG [#2 Exclusion - Arginine A Attempt #15 (Inspired by Omei)]	nM	395

---

System: MS2 coat protein
assay summary: apparent KD of MS2 coat protein; higher = weaker reporter binding
condition notes: Eterna round: R107; input ligand: none
# apparent KD of MS2 coat protein >= 100 nM gives Met, anything below gives Not met

residue sequence	discrete label
GCCAUCGGCGGAAGCCGAUGGGAUACAGAAGGAGCGUAGGAAACUACAGGUAGGUCGCUGGACAUGAGGAUCACCCAUGUGAUAG [SSAA #11]	Not met
UUGUUGUUUGGAAGGAGCGUGGAUGAGUUAGAACAUGAGGAUCACCCAUGUUGGAUGAUACCACAGGUAGGUCGCCGGGUGGUGG [11.Z]	Not met
CGUGCUAGGGCGGCCGCCACUGUGGCUACGGUACAUGAGGAUCACCCAUGUUUGUGGUUGAUCUACAGGACCGGGCCCUGGCACG [Radiaerdi]	Met
AAUAAACAUGAGGAUCACCCAUGUAGGGUGCGAGGACCGGUACGGCCGCCACUCGGGUGAAAACAUGAAAAUCACCCAUGUAAAA [Mat - Exclusion - Trytophan A - D24]	Met
GGACUAACUCGAAGGAGCGACGCGCAGAAACUGCAAUUUCCUCCACACGAGGAUCACCCGUGUCAGGUAGGUCGCGAGUUAGUCG [ArgBX 29]	Not met
AGCCAUGGAAACAUGGCGGCGGCUUGAGCGCGAGGACCGGUACGGCCGCCACUCGGGCAACAUGAGGAUCACCCAUGUUCCUCAU [ETA NP+V+V2 #19]	Met

---

Tested on: K4 kissing-loop RNA reporter;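 note: bound reporter read as fluorescence of individual clusters on recovered sequencing chips by microscopy, with normalized cluster intensities fitted with a binding model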
assay summary: apparent KD of K4 kissing-loop reporter; higher = weaker reporter binding
condition notes: Eterna round: R107; input ligand: arginine 13.2 mM
observed property: apparent KD of K4 kissing-loop reporter (nM)

residue sequence	value reported
AGGGCUGAGAGCGAUACCAGCGGUAACUGUAUGGUCCAAUAGAGUGAUGUUUUAUAGAGCCGCCCUUGGCAGCGCAAUCUAUUAG [XTheo-B5]	65.5
AAGGCCACGAGAAGGAGCGUGCUAUGGAGUGAUGUUCCAAUGUAGACCUAAGGUCUACAAGCACAGGUAGGUCGCUCGUGGUCAA [Omei KL Arginine B SS A v2]	96.9
GCAGUGAUGUUGCACGAGUAGGCUGGAGUACGAGGACCGGUACGGCCGCCACUCGUACGAAAGUCGCUAAUUUAUGGAAUGGUGA [#07 K4 Tryptophan A Same State]	623
CCCUCACGAGUGAUGUUCGUAGGGUACAGUCAGGAUAUCAUGCGGUUGAGAAGGGACAGAGAGGGCGGCCACUGGUUGCUCUUCU [Tiatesqu]	249
GCCUAGGCUCGAAAGAGCCUAGGCUGGGCUCAGGAUAUCCGGAAACGGAGAAGGGAGGGACUAGUGAUGUUAGGGAUUCCCUAUG	264
AAGCAGUCCCUUGUUGUCAUCGAAGAUGAACGAGGACCGGUACGGCCGCCACUCGGAGUGAUGUUCCGAUGGCUGCAAAAUAAAA [MatMod 21 - Jieux - Exclusion - Tryptophan A]	96.7
AACACUCUGGGAGUGAUGUUCUCAAAUAACCGAGGACCGGUACGGCCGCCACUCGGAAAAGAGUGAGUCCUACGAAAAGUAGGAC [Omei inspired 3]	258
AUUAUAAAGUCGGCCGCCACUGAGAGUAGUGAUGUUACUCUAUUCCUUUACAUAUUAUAGUUUAUCAGGACCGGGACAUCAGAUU [JR_ExcTryptoB_Sub018]	214
AUAGAAAAGUGGCACCCUCACUAAAACAGUCGAGGACCGGUACGGCCGCCACUCGCGCGCUUUAGUGAUGUUAAAGCUAGGCGGA	228
GUGCGGCUAGUGAUGUUGGUUGCGUGGGAAGGAGCGCAGAAACAUGCAGGUAGGUCGCCCACACCUCUGAAAGAAGGUUAAUUCA [Biistian]	140
ACGCGCGCGAGUGAUGUUCGGAGCGGCUGGCAGGAUAUGUAGCAAUGCAGAAGGGUCGUGGCUGCUGGUAGGAAACUACUGGCAG [#2 Exclusion - FMN A Attempt #4 (HarryS)]	316
CAUGGAGUGAUGCUCCAUGGUCGGGCUUGGCAGGAUAUGGGAUCUUCCAGAAGGGCCGAUCCCGGCGAGUGAUGUUCGCUGGUCU [Exclusion FMN A GF 28]	332

The reported measurements were obtained from the supplement of paper PMC9170038.
